Tested on: HL-60(TB) leukemia
Assay: NCI tumour cell line growth inhibition, 48 h
Entries and their TGI values follow.

{"columns": ["molecule", "TGI"],
 "data": [
  ["COc1ccc(C2C3=C(NC(=O)C2C#N)c2ccc4ccccc4c2OCC3)cc1 (centres undefined)", "> 100 µM"],
  ["CN(C)CC1CCC/C(=C\\c2ccc(N(C)C)cc2)C1=O (centres undefined)", "> 100 µM"],
  ["COc1ccc2c(c1)O/C(=C\\c1cccc(OCC(=O)Nc3nc4ccccc4s3)c1)C2=O", "> 63 µM"],
  ["CCCC[C@@H]1NC(=O)[C@H](CCCCN)NC(=O)[C@H](CCCNC(=N)N)NC(=O)[C@H](CC(C)C)NC(=O)[C@@H](NC(=O)[C@H](Cc2cccc(Cl)c2)NC(=O)[C@@H]2CCCN2C(=O)[C@@H](NC(C)=O)C(C)C)CCSSC[C@@H](C(=O)N[C@@H](CCCCN)C(=O)N2CCC[C@H]2C(=O)N2CCC[C@H]2C(=O)N[C@@H](CCC(=O)O)C(N)=O)NC(=O)[C@H](Cc2ccccc2)NC(=O)[C@H](CO)NC(=O)[C@H](C)NC(=O)[C@@H]2CCCN2C1=O", "> 50 µM"],
  ["Oc1c(Cl)c2nccnc2c2ccccc12", "> 100 µM"]
]}

We now examine a further molecule.
Kindly state the measured TGI obtained for O=C1CCC2(c3ccc(F)cc3)Nc3ccccc3N12 (centres undefined) with HL-60(TB) leukemia.
> 100 µM

* * *

System: SF-295 CNS
Assay: NCI tumour cell line growth inhibition, 48 h; in the data active means GI50 below about 0.43 µM; inactive means the rest
Where a SMILES comes first, the peptide text is derived from it. [ ]: non-standard residue; d: D form. The star is where a group is joined. ξ: configuration not given here. X16 = COC1=CC(=O)N(C(=O)C(O*)C(C)C)C1Cc1ccccc1; ξNMe2Val = CC(C)C(C(=O)*)N(C)C; NMeV = CN[CH](C(=O)O)C(C)C
Choose the fitting class; nothing outside 1 = active, 0 = inactive is accepted.

Solved entries:
{"columns": ["compound", "group"],
 "data": [
  ["COc1ccc2c(c1)Oc1nc(N)c(C#N)c(N)c1C2Sc1ccc(SC)cc1 (stereo not given)", 0],
  ["Cc1cc(N(CCCl)CCCl)ccc1C=Nc1cccnc1", 0],
  ["O=C(Cn1ccnc1[N+](=O)[O-])N(CCO)CCO", 0]
]}

Test call, this compound: `O=C1Nc2ccc(F)c3c(OCCO)cc(-c4ccc[nH]4)c1c23`
0

Test call, this compound: COC1=CC(=O)N(C(=O)C(OC(=O)C2CCCN2C(=O)C2CCCN2C(=O)C(C(C)C)N(C)C(=O)C(NC(=O)C(C(C)C)N(C)C)C(C)C)C(C)C)C1Cc1ccccc1 (stereo not given) (ξNMe2Val-V[NMeV]PP-X16; configuration not given here)
1

Test call, this compound: C=C1CC2CC[C@@]34C[C@@H]5O[C@@H]6C(O[C@H]7CC[C@H](CC(=O)OC8[C@@H](C)C9OC%10C[C@]%11(C[C@@H]%12O[C@@]%13(C[C@@H](C)[C@@H]%12O%11)C[C@H](C)[C@@H]%11OC%12CC(C(O)CO)OC%12C[C@@H]%11O%13)OC%10CC9O[C@H]8C[C@H]8O[C@@H](CC[C@@H]1O2)C[C@@H](C)C8=C)O[C@@H]7[C@@H]6O3)C5O4 (stereo not given in full)
1

Test call, this compound: `CO/N=C(\c1ccccc1)c1cnn(-c2ccccc2)c1N`
0

Test call, this compound: `COc1ccc2c(c1)O/C(=C\c1cccc(OCC(=O)Nc3nc4ccccc4s3)c1)C2=O`
0

Test call, this compound: COc1ccc(C2C3=C(NC(=O)C2C#N)c2ccc4ccccc4c2OCC3)cc1 (stereo not given)
0

Test call, this compound: `Brc1c[n+](Cc2ccc3ccccc3c2)cn1Cc1ccc2ccccc2c1`
0

* * *

Test system: MCF7 breast
Assay: NCI tumour cell line growth inhibition, 48 h
reported.property: TGI

{"columns": ["molecule", "study.target", "TGI"],
 "data": [
  ["CO/C(=N\\N=C(/C)C(F)(F)F)c1ccncc1", "MCF7 breast", "> 100 µM"],
  ["COc1cc2c(cc1OC)C13CCN4CC5=CCOC(CC(=O)O)C(C5CC41)C3N2 (stereo not drawn)", "MCF7 breast", "> 100 µM"]
]}

Kindly state the measured TGI obtained for COC(=O)C1Cc2c(C)cccc2C1=O (stereo not drawn) with MCF7 breast.
> 100 µM

* * *

Tested on: UO-31 renal
Assay: NCI tumour cell line growth inhibition, 48 h
Where a SMILES comes first, the peptide text is derived from it. [ ]: non-standard residue; d: D form. The star is where a group is joined. ξ: configuration not given here. X16 = COC1=CC(=O)N(C(=O)C(O*)C(C)C)C1Cc1ccccc1; ξNMe2Val = CC(C)C(C(=O)*)N(C)C; NMeV = CN[CH](C(=O)O)C(C)C
reported.property: GI50

Worked set:
{"columns": ["compound", "recorded.value"],
 "data": [
  ["COC1=CC(=O)N(C(=O)C(OC(=O)C2CCCN2C(=O)C2CCCN2C(=O)C(C(C)C)N(C)C(=O)C(NC(=O)C(C(C)C)N(C)C)C(C)C)C(C)C)C1Cc1ccccc1 (stereo not given) (ξNMe2Val-V[NMeV]PP-X16; configuration not given here)", "> 4 µM"],
  ["Cc1ccc(NS(=O)(=O)c2ccc(-c3cnc(C4CC4)o3)cc2)cc1", "3.49 µM"],
  ["COc1cc(-c2c3c(cn2S(=O)(=O)c2ccccc2)-c2nc(N)sc2CC3)cc(OC)c1OC", "2.98 µM"],
  ["Nc1ccccc1C#C/C=C\\C#Cc1ccc(F)cc1F", "13.1 µM"]
]}

We now examine a further compound.
Given `Cc1ccc(S(=O)(=O)N(C)C)cc1[N+](=O)[O-]` , state its recorded GI50.
21.5 µM

* * *

Test system: SK-MEL-28 melanoma
Assay: NCI tumour cell line growth inhibition, 48 h
reported.property: TGI

Worked set:
{"columns": ["compound", "reported.property", "recorded.value"],
 "data": [
  ["O=C1Nc2ccc(F)c3c(OCCO)cc(-c4ccc[nH]4)c1c23", "TGI", "15.1 µM"],
  ["Cc1ccc(N=Nc2c(O)c3ccccc3[nH]c2=O)c(S(=O)(=O)N(C)C)c1", "TGI", "> 100 µM"],
  ["c1ccc2[nH]c(-c3nc4ccccc4o3)nc2c1", "TGI", "> 100 µM"],
  ["C=C(NC(=O)C(=C)NC(=O)c1csc(C2=NC3c4csc(n4)C4NC(=O)c5csc(n5)C(C(C)(O)C(C)O)NC(=O)C5CSC(=N5)/C(=C/C)NC(=O)C(C(C)O)NC(=O)c5csc(n5)C3(CC2)NC(=O)C(C)NC(=O)C(=C)NC(=O)C(=C)NC(=O)C(C(C)C)NC2C=Cc3c(C(C)O)cc(nc3C2O)C(=O)OC4C)n1)C(N)=O (stereo not given)", "TGI", "> 62.1 µM"],
  ["Nc1c(Br)cc(-c2cc(Br)c(N)c(Br)c2)cc1Br", "TGI", "> 100 µM"],
  ["CC(C)(C)c1nc2c(o1)C(=Nc1ccccc1)c1ccccc1C2=O", "TGI", "10.8 µM"]
]}

Kindly state the measured TGI obtained for `CC1(C)CCc2c(cc3c(c2O)CCC(C)(C)O3)O1` with SK-MEL-28 melanoma.
> 100 µM

Kindly state the measured TGI obtained for `COc1nc(OC)c2c(=O)oc(-c3ccccc3)cc2n1` with SK-MEL-28 melanoma.
> 100 µM

Kindly state the measured TGI obtained for COC(=O)C(=O)C(C(=O)C(=O)Nc1ccccc1C(=O)OC)c1nc2ccc(C(=O)c3ccccc3)cc2[nH]c1=O (stereo not given) with SK-MEL-28 melanoma.
> 100 µM

Kindly state the measured TGI obtained for `O=C(/C=C/c1ccc(OCCCCCCCCCCOc2ccc(/C=C/C(=O)c3ccc(Cl)cc3)cc2)cc1)c1ccc(Cl)cc1` with SK-MEL-28 melanoma.
> 100 µM

Kindly state the measured TGI obtained for `COc1ccc(C[C@@H]2CN(C(=O)c3ccccc3)[C@H](Cc3ccc(O)cc3)CN2C(=O)c2ccccc2)cc1Br` with SK-MEL-28 melanoma.
> 100 µM

Kindly state the measured TGI obtained for CC(C)CN1CN(c2ccccc2)C2(CCN(CC(C)(c3ccc(F)cc3)C3OCCO3)CC2)C1=O (stereo not given) with SK-MEL-28 melanoma.
10 µM

Kindly state the measured TGI obtained for CC12CC3c4ccccc4CN1C3(c1ccccc1)OC2=O (stereo not given) with SK-MEL-28 melanoma.
> 100 µM

Kindly state the measured TGI obtained for CC(C)C1CN1CC(O)Cn1ccnc1[N+](=O)[O-] (stereo not given) with SK-MEL-28 melanoma.
> 100 µM

Kindly state the measured TGI obtained for `Cn1ncc2c(Nc3ccc(Br)cc3)nc(Nc3ccc(Br)cc3)nc21` with SK-MEL-28 melanoma.
17 µM
